- System: Pseudomonas aeruginosa
- Assay procedure: microbe, parasite or virus in culture
- Condition notes: 2779-con
- Description: Antimicrobial activity against Pseudomonas aeruginosa 2779-con by Etest
Reported metric: MIC (µg/mL)
Please state the figure in µg/mL; there is no need to write the unit.

MIC on Pseudomonas aeruginosa for CC1(C)S[C@@H]2[C@H](NC(=O)C(C(=O)O)c3ccccc3)C(=O)N2[C@H]1C(=O)O (stereo partly drawn) [CARBENICILLIN] is 128

Considering C[C@H]1[C@H](NC(=O)/C(=N\OC(C)(C)C(=O)O)c2csc(N)n2)C(=O)N1S(=O)(=O)O [AZTREONAM] , its MIC with Pseudomonas aeruginosa was recorded as 32

Record C[C@@H](O)[C@H]1C(=O)N2C(C(=O)O)=C(S[C@@H]3CN[C@H](C(=O)N(C)C)C3)[C@H](C)[C@H]12 [MEROPENEM] has Pseudomonas aeruginosa MIC equal to 1

----------
- Tested on: Pseudomonas aeruginosa
- Assay procedure: Antimicrobial activity against Pseudomonas aeruginosa isolate 15110c from fibrosis patient by Etest
- Type: functional
Kindly supply the reported MIC values for the records listed here.

What the record says about C[C@@H](O)[C@H]1C(=O)N2C(C(=O)O)=C(S[C@@H]3CN[C@H](C(=O)N(C)C)C3)[C@H](C)[C@H]12 : MIC is 16 µg/mL

# MIC (molecule: CC(C)(O/N=C(\C(=O)N[C@@H]1C(=O)N2C(C(=O)[O-])=C(C[n+]3ccccc3)CS[C@H]12)c1csc(N)n1)C(=O)O ) is 256 µg/mL

Lab note: measured MIC of C[C@H]1[C@H](NC(=O)/C(=N\OC(C)(C)C(=O)O)c2csc(N)n2)C(=O)N1S(=O)(=O)O was > 64 µg/mL

Recorded MIC (molecule NC[C@H]1O[C@H](O[C@H]2[C@H](O)[C@@H](O[C@H]3O[C@H](CO)[C@@H](O)[C@H](N)[C@H]3O)[C@H](N)C[C@@H]2N)[C@H](N)C[C@@H]1O ): > 32 µg/mL

Per the record, CC1(C)S[C@@H]2[C@H](NC(=O)C(C(=O)O)c3ccccc3)C(=O)N2[C@H]1C(=O)O (stereo partly drawn) has MIC of > 512 µg/mL

For reference, reported MIC for CO/N=C(\C(=O)N[C@@H]1C(=O)N2C(C(=O)O)=C(COC(C)=O)CS[C@H]12)c1csc(N)n1 stands at > 256 µg/mL

Form field MIC, entry NCC[C@H](O)C(=O)N[C@@H]1C[C@H](N)[C@@H](O[C@H]2O[C@H](CN)[C@@H](O)[C@H](O)[C@H]2O)[C@H](O)[C@H]1O[C@H]1O[C@H](CO)[C@@H](O)[C@H](N)[C@H]1O : > 64 µg/mL

Lab note: C[C@@H](O)[C@H]1C(=O)N2C(C(=O)O)=C(SCCNC=N)C[C@H]12 [IMIPENEM ANHYDROUS] gave MIC of > 32 µg/mL

----------
- Tested on: Pseudomonas aeruginosa
- Assay procedure: Antimicrobial activity against Pseudomonas aeruginosa isolate 15107 from fibrosis patient by Etest
- Assay type: functional
For each entry below, report its MIC value.

Entry C[C@H]1[C@H](NC(=O)/C(=N\OC(C)(C)C(=O)O)c2csc(N)n2)C(=O)N1S(=O)(=O)O , Pseudomonas aeruginosa data, MIC value: 2 µg/mL

Response field MIC (Pseudomonas aeruginosa) for item C[C@@H](O)[C@H]1C(=O)N2C(C(=O)O)=C(SCCNC=N)C[C@H]12 [IMIPENEM ANHYDROUS] : 8 µg/mL

Form field, MIC with Pseudomonas aeruginosa, item C[C@@H](O)[C@H]1C(=O)N2C(C(=O)O)=C(S[C@@H]3CN[C@H](C(=O)N(C)C)C3)[C@H](C)[C@H]12 : 2 µg/mL

Tested on Pseudomonas aeruginosa, the item NCC[C@H](O)C(=O)N[C@@H]1C[C@H](N)[C@@H](O[C@H]2O[C@H](CN)[C@@H](O)[C@H](O)[C@H]2O)[C@H](O)[C@H]1O[C@H]1O[C@H](CO)[C@@H](O)[C@H](N)[C@H]1O showed MIC equal to > 64 µg/mL

Entry CC1(C)S[C@@H]2[C@H](NC(=O)C(C(=O)O)c3ccccc3)C(=O)N2[C@H]1C(=O)O (stereo partly drawn) , tested on Pseudomonas aeruginosa, has a reported MIC of 128 µg/mL

Record CC(C)(O/N=C(\C(=O)N[C@@H]1C(=O)N2C(C(=O)[O-])=C(C[n+]3ccccc3)CS[C@H]12)c1csc(N)n1)C(=O)O / Pseudomonas aeruginosa, MIC recorded as 8 µg/mL

Entry CO/N=C(\C(=O)N[C@@H]1C(=O)N2C(C(=O)O)=C(COC(C)=O)CS[C@H]12)c1csc(N)n1 , Pseudomonas aeruginosa data, MIC value: 256 µg/mL

Record NC[C@H]1O[C@H](O[C@H]2[C@H](O)[C@@H](O[C@H]3O[C@H](CO)[C@@H](O)[C@H](N)[C@H]3O)[C@H](N)C[C@@H]2N)[C@H](N)C[C@@H]1O ; system Pseudomonas aeruginosa; MIC = 2 µg/mL

This collection of values is drawn from ChEMBL document CHEMBL1255447.
